- STUDY_CONDITIONS: 408.15 K; Liquid; Gas chromatography
Think of 0.3 kPa as a floor: if vapor or sublimation pressure stands on it or above, it is condition met; beneath it, condition not met.

Worked examples, 10 compounds total:
COMPOUND	CLASS_LABEL
C[Si]1(C)O[Si](C)(C)O[Si](C)(C)O[Si](C)(C)O[Si](C)(C)O[Si](C)(C)O[Si](C)(C)O[Si](C)(C)O[Si](C)(C)O1 [octadecamethylcyclononasiloxane]	condition not met
C[Si]1(C)O[Si](C)(C)O[Si](C)(C)O[Si](C)(C)O[Si](C)(C)O[Si](C)(C)O[Si](C)(C)O1 [tetradecamethylcycloheptasiloxane]	condition met
C[Si]1(C)O[Si](C)(C)O[Si](C)(C)O[Si](C)(C)O[Si](C)(C)O[Si](C)(C)O1 [dodecamethylcyclohexasiloxane]	condition met
C[Si](C)(C)O[Si](C)(C)O[Si](C)(C)O[Si](C)(C)O[Si](C)(C)O[Si](C)(C)C [tetradecamethylhexasiloxane]	condition met
C[Si](C)(C)O[Si](C)(C)O[Si](C)(C)O[Si](C)(C)O[Si](C)(C)O[Si](C)(C)O[Si](C)(C)O[Si](C)(C)O[Si](C)(C)O[Si](C)(C)O[Si](C)(C)C [tetracosamethylundecasiloxane]	condition not met
C[Si]1(C)O[Si](C)(C)O[Si](C)(C)O[Si](C)(C)O[Si](C)(C)O[Si](C)(C)O[Si](C)(C)O[Si](C)(C)O[Si](C)(C)O[Si](C)(C)O1 [icosamethylcyclodecasiloxane]	condition not met
C[Si](C)(C)O[Si](C)(C)O[Si](C)(C)O[Si](C)(C)O[Si](C)(C)O[Si](C)(C)O[Si](C)(C)O[Si](C)(C)C [octadecamethyloctasiloxane]	condition not met
C[Si](C)(C)O[Si](C)(C)O[Si](C)(C)O[Si](C)(C)O[Si](C)(C)O[Si](C)(C)O[Si](C)(C)O[Si](C)(C)O[Si](C)(C)O[Si](C)(C)C [docosamethyldecasiloxane]	condition not met
C[Si](C)(C)O[Si](C)(C)O[Si](C)(C)O[Si](C)(C)O[Si](C)(C)C [dodecamethylpentasiloxane]	condition met
C[Si](C)(C)O[Si](C)(C)O[Si](C)(C)O[Si](C)(C)O[Si](C)(C)O[Si](C)(C)O[Si](C)(C)C [hexadecamethylheptasiloxane]	condition met

Here is the next item to consider.
(Q) Identify whether the reported vapor or sublimation pressure of the following compound is 0.3 kPa or greater: C[Si]1(C)O[Si](C)(C)O[Si](C)(C)O[Si](C)(C)O[Si](C)(C)O[Si](C)(C)O[Si](C)(C)O[Si](C)(C)O1 [hexadecamethylcyclooctasiloxane]
(A) condition met

---

- STUDY_CONDITIONS: 408.15 K; Liquid; Gas chromatography
MEASUREMENT_NAME: vapor or sublimation pressure (kPa)
Answer with a number only, understood to be in kPa.

Please review the following examples before continuing.
SMILES	UNIT_ABBREV	vapor or sublimation pressure
C[Si](C)(C)O[Si](C)(C)O[Si](C)(C)O[Si](C)(C)O[Si](C)(C)O[Si](C)(C)O[Si](C)(C)O[Si](C)(C)O[Si](C)(C)O[Si](C)(C)O[Si](C)(C)O[Si](C)(C)C	kPa	0.00327
C[Si](C)(C)O[Si](C)(C)O[Si](C)(C)O[Si](C)(C)O[Si](C)(C)O[Si](C)(C)O[Si](C)(C)O[Si](C)(C)O[Si](C)(C)O[Si](C)(C)O[Si](C)(C)O[Si](C)(C)O[Si](C)(C)C	kPa	0.001205

(Q) May I ask what vapor or sublimation pressure has been recorded for C[Si](C)(C)O[Si](C)(C)O[Si](C)(C)O[Si](C)(C)O[Si](C)(C)O[Si](C)(C)O[Si](C)(C)O[Si](C)(C)O[Si](C)(C)C ?
(A) 0.0692

---

- STUDY_CONDITIONS: 378.15 K; Liquid; Gas chromatography
MEASUREMENT_NAME: vapor or sublimation pressure (kPa)
Answer with a number only, understood to be in kPa.

Please review the following examples before continuing.
COMPOUND	vapor or sublimation pressure, kPa
C[Si]1(C)O[Si](C)(C)O[Si](C)(C)O[Si](C)(C)O[Si](C)(C)O[Si](C)(C)O[Si](C)(C)O1 [tetradecamethylcycloheptasiloxane]	0.1619
C[Si](C)(C)O[Si](C)(C)O[Si](C)(C)O[Si](C)(C)O[Si](C)(C)C [dodecamethylpentasiloxane]	0.8448
C[Si](C)(C)O[Si](C)(C)O[Si](C)(C)O[Si](C)(C)O[Si](C)(C)O[Si](C)(C)C [tetradecamethylhexasiloxane]	0.2557
C[Si](C)(C)O[Si](C)(C)O[Si](C)(C)O[Si](C)(C)O[Si](C)(C)O[Si](C)(C)O[Si](C)(C)O[Si](C)(C)C [octadecamethyloctasiloxane]	0.02248
C[Si]1(C)O[Si](C)(C)O[Si](C)(C)O[Si](C)(C)O[Si](C)(C)O[Si](C)(C)O[Si](C)(C)O[Si](C)(C)O[Si](C)(C)O[Si](C)(C)O1 [icosamethylcyclodecasiloxane]	0.004666

// below: vapor or sublimation pressure requested for another compound
(Q) May I ask what vapor or sublimation pressure has been recorded for C[Si]1(C)O[Si](C)(C)O[Si](C)(C)O[Si](C)(C)O[Si](C)(C)O[Si](C)(C)O[Si](C)(C)O[Si](C)(C)O[Si](C)(C)O1 [octadecamethylcyclononasiloxane] ?
(A) 0.01455

---

- STUDY_CONDITIONS: 398.15 K; Liquid; Gas chromatography
Think of 0.1 kPa as a floor: if vapor or sublimation pressure stands on it or above, it is true; beneath it, false.

COMPOUND	CLASS_LABEL
C[Si]1(C)O[Si](C)(C)O[Si](C)(C)O[Si](C)(C)O[Si](C)(C)O[Si](C)(C)O[Si](C)(C)O1 [tetradecamethylcycloheptasiloxane]	true
C[Si](C)(C)O[Si](C)(C)O[Si](C)(C)O[Si](C)(C)O[Si](C)(C)O[Si](C)(C)O[Si](C)(C)O[Si](C)(C)O[Si](C)(C)C [eicosamethylnonasiloxane]	false
C[Si](C)(C)O[Si](C)(C)O[Si](C)(C)O[Si](C)(C)O[Si](C)(C)O[Si](C)(C)O[Si](C)(C)O[Si](C)(C)C [octadecamethyloctasiloxane]	false
C[Si]1(C)O[Si](C)(C)O[Si](C)(C)O[Si](C)(C)O[Si](C)(C)O[Si](C)(C)O1 [dodecamethylcyclohexasiloxane]	true

(Q) Identify whether the reported vapor or sublimation pressure of the following compound is 0.1 kPa or greater: C[Si](C)(C)O[Si](C)(C)O[Si](C)(C)O[Si](C)(C)O[Si](C)(C)O[Si](C)(C)O[Si](C)(C)O[Si](C)(C)O[Si](C)(C)O[Si](C)(C)C [docosamethyldecasiloxane]
(A) false

---

- STUDY_CONDITIONS: 338.15 K; Liquid; Gas chromatography
MEASUREMENT_NAME: vapor or sublimation pressure (kPa)
Answer with a number only, understood to be in kPa.

Please review the following examples before continuing.
SMILES	vapor or sublimation pressure, kPa
C[Si](C)(C)O[Si](C)(C)O[Si](C)(C)O[Si](C)(C)O[Si](C)(C)O[Si](C)(C)O[Si](C)(C)C	0.003586
C[Si](C)(C)O[Si](C)(C)O[Si](C)(C)O[Si](C)(C)O[Si](C)(C)O[Si](C)(C)O[Si](C)(C)O[Si](C)(C)C	0.0007271
C[Si]1(C)O[Si](C)(C)O[Si](C)(C)O[Si](C)(C)O[Si](C)(C)O[Si](C)(C)O1	0.04948
C[Si]1(C)O[Si](C)(C)O[Si](C)(C)O[Si](C)(C)O1	1.259
C[Si](C)(C)O[Si](C)(C)O[Si](C)(C)O[Si](C)(C)O[Si](C)(C)C	0.09498

(Q) May I ask what vapor or sublimation pressure has been recorded for C[Si]1(C)O[Si](C)(C)O[Si](C)(C)O[Si](C)(C)O[Si](C)(C)O[Si](C)(C)O[Si](C)(C)O1 ?
(A) 0.01

---

Reported vapor or sublimation pressure values are given for each entry in this list.
- STUDY_CONDITIONS: 358.15 K; Liquid; Gas chromatography
Answer with a number only, understood to be in kPa.

SMILES	QUANTITATIVE_READOUT
C[Si]1(C)O[Si](C)(C)O[Si](C)(C)O[Si](C)(C)O[Si](C)(C)O1	1.165
C[Si]1(C)O[Si](C)(C)O[Si](C)(C)O[Si](C)(C)O[Si](C)(C)O[Si](C)(C)O[Si](C)(C)O[Si](C)(C)O[Si](C)(C)O1	0.002888

// below: vapor or sublimation pressure requested for another molecule
(Q) May I ask what vapor or sublimation pressure has been recorded for C[Si]1(C)O[Si](C)(C)O[Si](C)(C)O[Si](C)(C)O1 ?
(A) 3.289

Data provenance: the NIST ThermoML archive (doi:10.1021/je100835n)
